Reported HC50 values follow for various compounds
Experiment: Toxicity in human erythrocytes assessed as hemolysis
Type: cell-based, Erythrocyte
Report as a plain number; the unit µM is understood.

Need HC50, item C[N+](C)(C)CCOP(=O)([O-])OCCCCCCCCCCC=C1CCCCCCCCCCCCCC1 100

# input for lookup
Please report the recorded HC50 for C[N+]1(C)C2CCC1CC(=CCOP(=O)([O-])OCCCCCCCCCCC=C1C3CC4CC(C3)CC1C4)C2 . 61.3

---

Below, each entry is listed with its recorded hemolysis at 500 µM.
Experiment: Toxicity in human erythrocytes assessed as hemolysis at 500 uM
Type: cell-based, Erythrocyte
Conditions: read-out: Activity
Units required after the number.

Consider the worked cases shown below.
State the recorded hemolysis at 500 µM for this entry: C[N+]1(CCOP(=O)([O-])OCCCCCC2CCCCCCCCCCCCCC2)CCCCC1 80.8%

Need hemolysis at 500 µM, item C[N+](C)(C)CCOP(=O)([O-])OCCCCC=C1CCCCCCCCCCCCCC1 57.4%

So what does the record say about hemolysis at 500 µM for C[N+]1(C)C2CCC1CC(=CCOP(=O)([O-])OCCCCCCCCCCC=C1C3CC4CC(C3)CC1C4)C2 ? 100%

Which measured hemolysis at 500 µM value corresponds to C[N+](C)(C)[C@@H]1CCCC[C@H]1OP(=O)([O-])OCCCCCCCCCCC=C1C2CC3CC(C2)CC1C3 (relative stereo) ? 100%

Looking for the measured hemolysis at 500 µM of C[N+]1(CCOP(=O)([O-])OCCCCC=C2CCCCCCCCCCCCCC2)CCOCC1 , can you help? 88.3%

Data request, read-out hemolysis at 500 µM, for C[N+](C)(C)[C@@H]1CCCC[C@H]1OP(=O)([O-])OCCCCCCCCCCC=C1CCCCC1 (relative stereo) 100%

Find the recorded hemolysis at 500 µM belonging to C[N+](C)(C)[C@H]1CCC[C@@H]1OP(=O)([O-])OCCCCC=C1CCCCCCCCCCCCCC1 (relative stereo) and report it. 100%

Others:
Which hemolysis at 500 µM is listed for C[N+](C)(C)[C@H]1CCCC[C@@H]1OP(=O)([O-])OCCCCC=C1CCCCCCCCCCCCCC1 (relative stereo) ? 100%
